B1: library; a variant is named by its letters at X, in order (parent)
chain: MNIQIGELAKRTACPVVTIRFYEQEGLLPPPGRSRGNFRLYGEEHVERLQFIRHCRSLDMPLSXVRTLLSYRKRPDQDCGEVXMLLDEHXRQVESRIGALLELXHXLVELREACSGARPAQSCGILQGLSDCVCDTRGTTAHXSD

- Variants of: B1
- method: sfGFP reporter fluorescence (15 h) (µM FITC); higher = higher leak
- condition.context: library round: Round 3b; ligand: none
measured.endpoint: sfGFP reporter fluorescence

variant.key	readout.value
KFAVHP	0.0477
KIITET	0.0468
KIIKAT	0.0413
